# Test system: premalignant 10T1/2 cells
# experiment: cells
# conditionSummary: 1 mM, sodium salts
Recorded Differentiation at 1 mM by entry

compound	studySystem	inequalityOperator	Differentiation at 1 mM [%]
O=C(O)Cc1c(Cl)cccc1Cl [2,6-dichlorophenylacetate]	premalignant 10T1/2 cells	=	75
O=C([O-])Cc1ccccc1.[Na+] [NaPA, sodium phenylacetate]	premalignant 10T1/2 cells	=	65
O=C(O)Cc1cccc2ccccc12 [1-naphthylacetate]	premalignant 10T1/2 cells	>	95
O=C(O)Cc1ccc(Cl)cc1 [4-chlorophenylacetate]	premalignant 10T1/2 cells	=	50
O=C(O)Cc1ccc(F)cc1 [4-fluorophenylaceatae]	premalignant 10T1/2 cells	=	65
O=C(O)Cc1cccc(Cl)c1 [3-chlorophenylacetate]	premalignant 10T1/2 cells	=	80

====

# experiment: Cytotoxicity in tissue culture
# Assay type: cell-based
# conditionSummary: tissue culture; read-out: concentration at which cytotoxicity was observed

molecule	MCC
O=C([O-])Cc1ccccc1.[Na+] [NaPA, sodium phenylacetate]	> 3000 µg/mL
